ASSAY TEXT: growth inhibitors of tim10-1 mutant yeast, primary screen, luminescence, uHTS (AID 463190);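 note: mutant grown at 25 °C; 0% = DMSO wells with yeast and 100% = wells holding no yeast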
PROTOCOL CONDITIONS: S. cerevisiae tim10-1 ts strain growth, BacTiter-Glo, 24 h; at 20 µM; stronger effect = higher value
The campaign covered roughly 330,000 compounds. About 7,300 (2.2%) were called active. The full list was thinned out, with actives kept by preference.

[
  {
    "COMPOUND": "CC(=O)N(C1=NCCCS1)c1ccccc1F",
    "inhibition [%]": 3.96
  },
  {
    "COMPOUND": "CCCCCn1c(=O)c(C(=O)NCc2ccccc2)c(O)c2ccccc21",
    "inhibition [%]": -27.8
  },
  {
    "COMPOUND": "N#CC1=C(N)Oc2c(c(=O)oc3ccccc23)C1c1ccccc1OC(=O)c1cccs1 (configuration not stated)",
    "inhibition [%]": 46.4
  },
  {
    "COMPOUND": "COc1ccc(N2C(=O)/C(=C/c3ccco3)C(=O)NC2=S)cc1",
    "inhibition [%]": 23.1
  },
  {
    "COMPOUND": "CCCCn1c(=O)c(C(=O)Nc2ccccc2Cl)c(O)c2ccccc21",
    "inhibition [%]": 2.29
  },
  {
    "COMPOUND": "O=C(O)CCn1cc(C=C2C(=O)NC(=S)NC2=O)c(-c2cccc(Br)c2)n1",
    "inhibition [%]": 23.4
  },
  {
    "COMPOUND": "O=C(CCCn1c(=O)[nH]c2cc(Cl)ccc2c1=O)N1CCC2(CC1)OCCO2",
    "inhibition [%]": 17.3
  },
  {
    "COMPOUND": "CC1C2Cn3c(nc4ccccc43)C1N(C)O2 (configuration not stated)",
    "inhibition [%]": -11.3
  },
  {
    "COMPOUND": "CN(C)C(=O)Oc1cc(=O)n2c3c(cccc13)CCC2",
    "inhibition [%]": 13.3
  },
  {
    "COMPOUND": "Fc1ccc(C2N3CCCN23)cc1 (configuration not stated)",
    "inhibition [%]": -13.4
  },
  {
    "COMPOUND": "COc1ccc2c(c1O)-c1cccc3c1[C@@H](C2)N(C)CC3",
    "inhibition [%]": -10
  },
  {
    "COMPOUND": "O=C1C2(Cl)C3(Cl)C4(Cl)C(Cl)(Cl)C5(Cl)C3(Cl)C1(Cl)C5(Cl)C24Cl (configuration not stated)",
    "inhibition [%]": -91.8
  },
  {
    "COMPOUND": "CNP1(NC)=Nc2nn(-c3ccccc3)c(N)c2C(c2ccccc2)=N1",
    "inhibition [%]": -2.7
  },
  {
    "COMPOUND": "CCNc1nc2[nH]c(=O)c3c(c2s1)OC(N)=C(C#N)C3c1cccs1 (configuration not stated)",
    "inhibition [%]": -13.5
  },
  {
    "COMPOUND": "COP(=O)(OC)C(NC(=O)c1ccc(C)cc1)C(Cl)(Cl)Cl (configuration not stated)",
    "inhibition [%]": 11
  },
  {
    "COMPOUND": "Cc1nc2ccccn2c1P(=S)(N1CCCCC1)N1CCCCC1",
    "inhibition [%]": 56.2
  },
  {
    "COMPOUND": "CCc1ccc(OCC(=O)N2CCN(CC(=O)Nc3ccccc3Cl)CC2)cc1",
    "inhibition [%]": 12.7
  }
]
